Experiment: Dissociation of chelates in aq. 1.0M HCl at 80° C. (acid decomplexation kinetic inertness) (Chart 18)
Type: physicochemical
Conditions: 1 month
Exercise: state measured fraction of intact chelate for each of the compounds provided.
Answers are plain numbers, in %.

CHEMICAL STRING | fraction of intact chelate, %
O=C1C[N@@]2CC[N@]3CC[N@@](CC[N@](CC2)Cc2cccc(n2)-c2cnnn2Cc2cc(-c4ccccc4)cc(n2)C3)CC(=O)[O][Ce][O]1 | 0
O=C1C[N@@]2CC[N@]3CC[N@@](CC[N@](CC2)Cc2cccc(n2)-c2cnnn2Cc2cc(-c4ccccc4)cc(n2)C3)CC(=O)[O][Tb][O]1 | 23
O=C1C[N@@]2CC[N@]3CC[N@@](CC[N@](CC2)Cc2cccc(n2)-c2cnnn2Cc2cc(-c4ccccc4)cc(n2)C3)CC(=O)[O][Lu][O]1 | 100

Proceed to the following item.
Query string: Which fraction of intact chelate value belongs to O=C1C[N@@]2CC[N@]3CC[N@@](CC[N@](CC2)Cc2cccc(n2)-c2cnnn2Cc2cc(-c4ccccc4)cc(n2)C3)CC(=O)[O][Gd][O]1 ?
Result string: 0
